The values you see were collected from ChEMBL document CHEMBL4196168.

target-under-test: Transthyretin (Homo sapiens) (UniProt P02766)
assay-text: Binding affinity to transthyretin (unknown origin) assessed as free TdeltaS changes by ITC method
assay-endpoint: TdeltaS (kcal/mol)

>  <compound>
CCc1n[nH]c(CC)c1CCCOc1cc(C(=O)O)ccc1F

>  <TdeltaS / kcal/mol>
6

$$$$

A: Cc1nn(C)c(C)c1CCCOc1cc(C(=O)O)ccc1F
B: Cc1n[nH]c(C)c1CCCOc1cc(C(=O)O)ccc1I
C: COC(=O)c1ccc(F)c(OCCCc2c(C)n[nH]c2C)c1
D: O=C(O)c1ccc2nc(-c3cc(Cl)cc(Cl)c3)oc2c1
E: O=C(O)c1cc(-c2ccc(F)cc2F)ccc1O [DIFLUNISAL]
// sort entries: TdeltaS, high to low Respond with an ordered listing of the labels, as requested.
D, A, C, E, B
(D: 6.39 kcal/mol, A: 4.27 kcal/mol, C: 2.5 kcal/mol, E: 0.34 kcal/mol, B: -0.21 kcal/mol)

* * *

target-under-test: Transthyretin (Homo sapiens) (UniProt P02766)
assay-text: Binding affinity to transthyretin in human serum assessed as protein stabilization at 2:1 compound to TTR ratio after 72 hrs by Western blot
assay-endpoint: Activity (%)

>  <structure-as-smiles>
O=C(O)c1ccc2nc(-c3cc(Cl)cc(Cl)c3)oc2c1

>  <unit-of-measure>
%

>  <Activity>
41.5

$$$$
>  <structure-as-smiles>
COC(=O)c1ccc(F)c(OCCCc2c(C)n[nH]c2C)c1

>  <unit-of-measure>
%

>  <Activity>
70.4

$$$$
>  <structure-as-smiles>
Cc1nn(C)c(C)c1CCCOc1cc(C(=O)O)ccc1F

>  <unit-of-measure>
%

>  <Activity>
32.1

$$$$

1: CCc1n[nH]c(CC)c1CCCOc1cc(C(=O)O)ccc1F
2: Cc1n[nH]c(C)c1CCCOc1cc(C(=O)O)ccc1I
Response body: label of entry with the larger Activity; valid values 1 , 2 . Pick one and reply with its label.
2
(2: 86.7%, 1: 23.2%)

* * *

target-under-test: Transthyretin (Homo sapiens) (UniProt P02766)
assay-text: Binding affinity to transthyretin (unknown origin) assessed as free enthalpy changes by ITC method
assay-endpoint: deltaH (kcal/mol)

>  <structure-as-smiles>
O=C(O)c1cc(-c2ccc(F)cc2F)ccc1O

>  <assay-endpoint>
deltaH

>  <unit-of-measure>
kcal/mol

>  <measured>
-8.38

$$$$
>  <structure-as-smiles>
O=C(O)c1ccc2nc(-c3cc(Cl)cc(Cl)c3)oc2c1

>  <assay-endpoint>
deltaH

>  <unit-of-measure>
kcal/mol

>  <measured>
-5

$$$$
>  <structure-as-smiles>
Cc1n[nH]c(C)c1CCCOc1cc(C(=O)O)ccc1I

>  <assay-endpoint>
deltaH

>  <unit-of-measure>
kcal/mol

>  <measured>
-9.82

$$$$
>  <structure-as-smiles>
COC(=O)c1ccc(F)c(OCCCc2c(C)n[nH]c2C)c1

>  <assay-endpoint>
deltaH

>  <unit-of-measure>
kcal/mol

>  <measured>
-6.49

$$$$

A: Cc1nn(C)c(C)c1CCCOc1cc(C(=O)O)ccc1F
B: CCc1n[nH]c(CC)c1CCCOc1cc(C(=O)O)ccc1F
Between item A and item B , which reported deltaH is smaller? Pick one and reply with its label.
A
(A: -4.73 kcal/mol, B: -2.1 kcal/mol)

* * *

target-under-test: Transthyretin (Homo sapiens)
assay-text: Binding affinity to transthyretin in human serum assessed as protein occupancy at 2:1 compound to TTR ratio by fluorescent probe exclusion assay
assay-endpoint: Occ (%)

>  <structure-as-smiles>
O=C(O)c1ccc2nc(-c3cc(Cl)cc(Cl)c3)oc2c1

>  <measured>
49

$$$$
>  <structure-as-smiles>
COC(=O)c1ccc(F)c(OCCCc2c(C)n[nH]c2C)c1

>  <measured>
63.2

$$$$

a: Cc1nn(C)c(C)c1CCCOc1cc(C(=O)O)ccc1F
b: Cc1n[nH]c(C)c1CCCOc1cc(C(=O)O)ccc1I
c: CCc1n[nH]c(CC)c1CCCOc1cc(C(=O)O)ccc1F
# ascending order, key=Occ Respond with an ordered listing of the labels, as requested.
c, a, b
